Molecular target: Lysophosphatidic acid receptor 3 (Homo sapiens, UniProt Q9UBY5)
Sequence (Q9UBY5 whole entry): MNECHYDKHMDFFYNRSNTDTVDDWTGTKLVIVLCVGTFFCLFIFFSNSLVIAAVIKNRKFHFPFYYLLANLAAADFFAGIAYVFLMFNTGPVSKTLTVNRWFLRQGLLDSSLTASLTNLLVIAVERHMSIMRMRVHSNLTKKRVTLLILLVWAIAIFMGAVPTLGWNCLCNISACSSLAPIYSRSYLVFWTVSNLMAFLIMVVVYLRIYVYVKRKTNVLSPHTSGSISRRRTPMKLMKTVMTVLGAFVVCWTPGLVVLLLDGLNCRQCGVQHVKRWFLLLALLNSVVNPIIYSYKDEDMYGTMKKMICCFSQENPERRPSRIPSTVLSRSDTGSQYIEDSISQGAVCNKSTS
Experiment: LPAR3 Calcium Flux Assays: A cDNA encoding the human LPAR3 receptor is synthesized and cloned into pDNA3 expression plasmid. The plasmid is transfected in U2OS cells using Lipofectamine 2000 (Invitrogen Corp., USA). Clones stably expressing human LPAR3 are selected using neomycin and identified as cells that show Ca-influx in response to LPA.U2OS cells overexpressing human LPAR3 are seeded at 20,000-40,000 cells per well in a 96-well poly-D-lysine coated plate one day before the assay. Prior to the assay, the cells are washed once with assay buffer (HBSS containing 20 mM HEPES and 0.2% BSA) and then incubated in 50 μl of assay buffer for 60 minutes. Then 50 μl of a calcium indicator dye (Fluo-4 NW, Molecular Probes) are added to each well and incubation is continued for 30 minutes at 37° C. and then 30 minutes at room temperature. 50 μl of test compounds in 4% DMSO are added to the cells and incubation continued at room temperature for 40 minutes. Cells are stimulated by the addition of 50 μl of 128 nM LPA and intracellular calcium is measured using the FLIPR TETRA (Molecular Devices). IC50 values are determined using “Genedata Screener” analysis tool.
pIC50: −log10 of the molar value.
observable: pIC50

Look up pIC50 for this molecule: Cn1ncc(-c2ccc(-c3ccc(C4(C(=O)O)CC4)c(C(F)(F)F)c3)cn2)c1Nc1cncc(OC2CC2)n1
< 5.00
